Molecular target: OmpR-N6His (Xenorhabdus nematophila YL001) (UniProt D3VF01)
Sequence: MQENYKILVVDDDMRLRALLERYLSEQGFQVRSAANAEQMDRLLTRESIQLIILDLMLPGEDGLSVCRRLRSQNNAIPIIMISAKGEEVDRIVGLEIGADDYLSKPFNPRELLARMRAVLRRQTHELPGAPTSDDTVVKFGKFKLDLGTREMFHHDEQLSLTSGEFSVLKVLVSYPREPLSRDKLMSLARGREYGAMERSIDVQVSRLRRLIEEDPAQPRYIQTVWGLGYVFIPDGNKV
Assay: EMSA
Settings: EMSA: 5x buffer 250 mM Tris, 250 mM KCl, 0.5 mM DTT, 50 mM MgCl2, 25% glycerol, pH 8.0 (1x: 50 mM Tris, 50 mM KCl, 0.1 mM DTT, 10 mM MgCl2, 5% glycerol); 30 min
test-readout: binding

record-sequence: TTTGGATTGCATAAATTTTGTTAAGAAAGGAGAAAAATAAAACCCCATGATAGTCTAAATAGTAAAAAAATGAAGTAAACCTTTGCCCTATTTAATAGAGTAGAGTAATGTCACAATCGGTATTATTTTATTTGATACTGCTGAAGTAAAAACACCAGGTTAGTTAGTAATTAAAATCAAAAAAAAGTGATGAATAAACAATG (double strand) [PlrhA203]
experimental-value: no binding
//
record-sequence: CCGGCCTTTGGTAATAAATCAGGATAATTGAGTGATGTAAACGGGAAAACAAGGGGAAAAAACCAAAGCATAAGCAATGATTGCCAATACGGTTAATGGCCTTAAAATACATGTGGTTAGTTTCTATTGAATATGGGGTTTCGGTAAAAGTCATGGATATTGCGGGCATGGAGCATCTTGGGAGCTGAAAC (double strand) [PompR191]
experimental-value: no binding
//
record-sequence: TACGGCTACGTAAATAATAAAGCATTGGTTATGTCTGTTTGTTTTTTTGTACAAGGACGAATCTCAATTTAATTTCGAAAAATTGAGGTCATTGATCTTATTAATGGGTAGGTTGTTTACGATGTCAAAATGTTGCATTTGAAAACAGACAATCTTCCATTATTTAATGAGATCACTGCGATAAGTTTAGTGGAGTGAAATA (double strand) [PleuO202]
experimental-value: no binding

Provenance of the data: paper PMC12196045
